# measurement.target: KRAS(G12D)/SOS1 (Homo sapiens, UniProt P01116, G12D)
# Construct: purchased Cisbio 63ADK000CB17PEH
# Sequence (P01116 1-188 isoform P01116-2 G12D): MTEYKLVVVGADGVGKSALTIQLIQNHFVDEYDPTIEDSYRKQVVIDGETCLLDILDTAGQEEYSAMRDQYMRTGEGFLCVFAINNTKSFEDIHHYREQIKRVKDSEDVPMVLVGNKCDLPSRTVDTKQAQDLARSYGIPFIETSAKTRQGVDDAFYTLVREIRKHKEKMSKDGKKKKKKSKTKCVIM
# method.description: KRAS(G12D)/SOS1 homogeneous time-resolved fluorescence (HTRF) assay
# Format: binding
# assay.setup: absence of GTP; 4° C., 3 hr
pIC50: −log10 of the molar value.
# maps each entry to its pIC50
readout.label: pIC50

>>> reported("CCNC(=O)c1nnc(-c2cc(C(C)C)c(O)cc2O)n1-c1ccc(CN(C)[C@@H]2CN3CCC[C@]3(COc3nc(N4CC5CCC(C4)N5)c4cnc(-c5cc(O)cc6ccccc56)c(F)c4n3)C2)cc1")
"> 7.00"
>>> reported("C#Cc1cccc2cc(O)cc(-c3ncc4c(N5CC6CCC(C5)N6)nc(OC[C@@H]5C[C@H](N6CCN(Cc7ccc(-n8c(C(=O)NC(C)C)nnc8-c8cc(C(C)C)c(O)cc8O)cc7)CC6)CN5C)nc4c3F)c12")
"> 7.00"
>>> reported("CC(C)c1cc(C(=O)N2Cc3ccc(CN(C)[C@H]4CN5CCC[C@]5(COc5nc(N6CC7CCC(C6)N7)c6cnc(-c7cc(O)cc8ccccc78)c(F)c6n5)C4)cc3C2)c(O)cc1O")
"6.00 to 7.00"
>>> reported("C#Cc1cccc2cccc(-c3ncc4c(N5CC6CCC(C5)N6)nc(OC[C@@H]5C[C@H](N6CCN(Cc7ccc(-n8c(C(=O)NCC)nnc8-c8cc(C(C)C)c(O)cc8O)cc7)CC6)CN5C)nc4c3F)c12")
"> 7.00"
>>> reported("C#Cc1cccc2cccc(-c3ncc4c(N5CC6CCC(C5)N6)nc(OCC5(CN6CCN(Cc7ccc(-n8c(C(=O)NC(C)C(F)(F)F)nnc8-c8cc(C(C)C)c(O)cc8O)cc7)CC6)CC5)nc4c3F)c12 (stereo not drawn)")
"6.00 to 7.00"
>>> reported("C#Cc1cccc2cccc(-c3ncc4c(N5CC6CCC(C5)N6)nc(OCCN5CCN(Cc6ccc(-n7c(C(=O)NCC)nnc7-c7cc(C(C)C)c(O)cc7O)cc6)CC5)nc4c3F)c12")
"> 7.00"
>>> reported("C#Cc1c(F)ccc2cc(O)cc(-c3ncc4c(N5CC6CCC(C5)N6)nc(OCC5(CN6CCN(C7CN(Cc8ccc(-n9c(C(=O)NC(C)C(F)(F)F)nnc9-c9cc(C(C)C)c(O)cc9O)cc8)C7)CC6)CC5)nc4c3F)c12 (stereo not drawn)")
"> 7.00"
>>> reported("CCNC(=O)c1nnc(-c2cc(C(C)C)c(O)cc2O)n1-c1ccc(CN2CCC(C(=O)N3CCN([C@H]4C[C@@H](COc5nc(N6CC7CCC(C6)N7)c6cnc(-c7cccc8cccc(C)c78)c(F)c6n5)N(C)C4)CC3)CC2)cc1")
"6.00 to 7.00"
>>> reported("CCNC(=O)c1nnc(-c2cc(C(C)C)c(O)cc2O)n1-c1ccc(CN2CCC(C(=O)N3CCN([C@H]4C[C@@H](COc5nc(N6CC7CCC(C6)N7)c6cnc(-c7cc(O)cc8ccccc78)c(F)c6n5)N(C)C4)CC3)CC2)cc1")
"> 7.00"
